Record form. Attribute: inhibition. Fill in for each entry.
Biological target: Bcl-2-like protein 1 (Homo sapiens)
Experiment: Bcl-xL/Bim BH3 interaction blockers – biochemical, fluorescence polarization, HTS, primary screen (AID 2129);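 note: 0% = DMSO wells and 100% = unlabeled Bim-BH3 peptide competitor; inhibitors lower millipolarization by displacing the labeled peptide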
Details: GST-Bcl-xL / FITC-Bim BH3 peptide fluorescence polarization; at 10.9 µM; hits give high values
Screen size: about 320,000 compounds; about 2,200 (0.69%) were called active. This excerpt belongs to a sample that is enriched for actives.
Write the value in % as a bare number.

Return inhibition for the following compound: COc1ccc(OCC(O)CN(C)C(=O)C(C)Oc2ccccc2)cc1 (stereo unspecified) -1.74

Quick one: give measured inhibition for CC1CCN(C(=S)NC(=O)c2ccccc2Br)CC1 1.04

Could you please provide reported inhibition for COC(=O)C[n+]1cccc2ccccc21 ? Thanks! 173

Fill in inhibition for record CSc1nc2ccccc2cc1/C=C(\C#N)c1ccc(Cl)cc1Cl 1.93

Supply measured inhibition of O=c1onc(-c2c(F)cccc2F)n1-c1ccccc1Cl in your reply. 3.32

Please indicate inhibition recorded for CC1CCCCC1NC(=O)/C(C#N)=C/C=C/c1ccccc1[N+](=O)[O-] (stereo unspecified) 7.36

###

Target: Bcl-2-like protein 1 (Homo sapiens) (UniProt Q07817)
Sequence (Q07817 whole entry, looked up): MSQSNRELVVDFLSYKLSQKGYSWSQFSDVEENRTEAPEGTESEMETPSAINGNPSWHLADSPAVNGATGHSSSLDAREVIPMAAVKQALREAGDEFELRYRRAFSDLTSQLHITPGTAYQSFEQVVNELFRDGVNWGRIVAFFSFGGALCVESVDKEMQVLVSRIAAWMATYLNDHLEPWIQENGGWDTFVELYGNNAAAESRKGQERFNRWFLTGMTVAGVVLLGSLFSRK
Test: Bcl-xL/Bim BH3 interaction blockers – biochemical, fluorescence polarization, HTS, primary screen (AID 2129);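 note: 0% = DMSO wells and 100% = unlabeled Bim-BH3 peptide competitor; inhibitors lower millipolarization by displacing the labeled peptide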
Conditions: GST-Bcl-xL / FITC-Bim BH3 peptide fluorescence polarization; at 10.9 µM
About 2,200 (0.69%) of roughly 320,000 compounds were called active.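 Rule for the calls: active = inhibition above the mean of all tested compounds plus 3 SD, cutoff set per campaign (cut at about 30% in these data); inactive = the rest.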 What follows is part of a selection rich in actives, with near analogues and random picks from the rest.
Use one of these outcomes when replying: active, inactive

Identify the outcome logged in this assay for the compound shown: Cc1ccc(S(=O)(=O)C(C#N)c2nc3ccccc3nc2N2CCCC2)cc1C (stereo not given) active

Record request — test call for COc1cc(CN(C)Cc2nc3cc(C(F)(F)F)ccc3c(=O)[nH]2)ccc1OC(F)F inactive

Lab log entry: C/C(CC(=O)NC(C)c1ccccc1)=N\NC(N)=S (stereo not given) — outcome as called in the assay? inactive

Please state the recorded outcome for this compound: Cc1cc2c(C)nc(N/N=C/c3ccccc3)nc2o1 inactive

What did the test return for O=C1CCCN1CCCNC(=S)Nc1ccc(F)c(Cl)c1 ? inactive

Tell me the recorded outcome of this test for C#CCOCCOCCOCCNc1nc(N2CCN(C(=O)C([C@@H](C)CC)n3cc(C(N)COC(=O)C(F)(F)F)nn3)CC2)nc(N2CCN(C(=O)[C@H](Cc3ccc(O)cc3)n3cc(C(N)[C@H](C)CC)nn3)CC2)n1 (stereo not given in full) . inactive

What did the test return for CC1CC(c2ccccc2)n2nc(NC(=O)c3cccs3)nc2N1 (stereo not given) ? inactive

Recorded test outcome, item Cc1nc([N+](=O)[O-])c(NCCCO)n1Cc1ccccc1 inactive

Could you please tell me the result logged for COc1ccccc1/C=C/C=N/n1c(-c2ccc(Cl)cc2Cl)n[nH]c1=S in this assay? inactive

Hi, do you know how CCOC(=O)c1sc2nc(C)nc(SCC(N)=O)c2c1C came out in this test? inactive

Would you mind telling me which call this test gave CCOc1ccc(C2C3=C(CCCC3=O)N(CC(=O)O)C3=C2C(=O)CCC3)cc1 ? inactive

Assay outcome for COC(=O)CCCC1=CC2=CC(=O)C(C)(OC(=O)c3cccs3)C(=O)C2=CN1CC1CC1 (stereo not given) : what was it? inactive

Give the logged outcome of this assay for the following compound: COC(=O)CCCC1=CC2=CC(=O)C(C)(OC(=O)c3cccs3)C(=O)C2=CN1c1cccc(C#N)c1 (stereo not given) active

Test call for this compound, please: COc1ccc(C(=O)N(CCN2CCOCC2)CC(=O)NC2CCCC2)cc1OC inactive

Hello, I am checking results. What call was entered for CC(C)[C@@H](NC(=O)OC(C)(C)C)C(=O)NCC1CCC(C(=O)N[C@@H](Cc2ccccc2)C(=O)O)CC1 (stereo not given in full) ? inactive

Check the results log: what was the call for Cc1ccc(S(=O)(=O)Nc2nc3ccccc3nc2N2CCc3ccccc3C2)cc1 ? inactive

// return assay outcome for COc1cc2nc(CN(C)Cc3ccc(F)cc3)[nH]c(=O)c2cc1OC inactive

Tell me the recorded outcome of this test for CCCN1C2=C(C(=O)CCC2)C(c2ccc(O)c(Br)c2)C2=C1CCCC2=O . active

So what was the verdict on CN1C(C)(C)CC(NC(=O)CCC(=O)NC2CC(C)(C)N(C)C(C)(C)C2)CC1(C)C in this test? inactive

Test call, this compound: O=C(CN1CCSCC1)N/N=C/c1ccc(F)cc1F inactive

###

Target: Bcl-2-like protein 1 (Homo sapiens)
Assay: Bcl-xL/Bim BH3 interaction blockers – biochemical, fluorescence polarization, HTS, primary screen (AID 2129);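 note: 0% = DMSO wells and 100% = unlabeled Bim-BH3 peptide competitor; inhibitors lower millipolarization by displacing the labeled peptide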
Conditions: GST-Bcl-xL / FITC-Bim BH3 peptide fluorescence polarization; at 10.9 µM; hits give high values
About 2,200 (0.69%) of roughly 320,000 compounds were called active. The sample as a whole holds a higher share of actives than the screen did.
MEASURED ENDPOINT: inhibition (%)
Response body: numeric value in %, unit text excluded.

Dear colleague, please send me the reported inhibition for O=C(N/N=C/c1sc(N2CCCCC2)nc1-c1cccs1)c1cccnc1 when you can. -12.1

Find the measured inhibition of Cc1ccccc1N1C(=O)C2ON(c3ccccc3)C(c3ccncc3)C2C1=O (configuration not stated) and report it. 4.04

Determine from records and report inhibition for Cc1ccc(C(=O)N/N=C\c2cc(Br)c(Br)o2)cn1 39.1

Item CC(=O)c1ccc(-c2ccc(Cn3c(C)nc4cc(N)c(C)nc43)cc2)cc1 : provide inhibition -0.35

State its inhibition: O=C(NCc1ccncc1)C1CCCN(S(=O)(=O)c2ccc(Br)cc2)C1 (configuration not stated) 9.21

Please report the measured inhibition for Oc1[nH]c2ccc(Br)cc2c1N=Nc1nn[nH]n1 1.22

Hello, please tell me recorded inhibition for this one: O=C(c1ccc(Cl)cc1)N1N=C(c2ccccn2)CC1(O)C(F)(F)F (configuration not stated) -13

Answer with reported inhibition of CN(CCO)S(=O)(=O)c1ccc2c(c1)C(=O)c1cc(S(=O)(=O)N(C)CCO)ccc1-2 1.55

Report inhibition, nothing else, for this compound: CNC(=S)NNC(=O)c1oc2nc(-c3ccccc3)cc(-c3ccco3)c2c1N 30.6

Given the compound CCC1CCCCN1C(=O)CSc1nc2c(c(=O)n1C)SC(C)C2 (configuration not stated) , write its reported inhibition. 2.98

Entry CCCCOP(=O)(c1ccc(N(C)C)cc1)C(O)c1cc(OC)ccc1OC (configuration not stated) needs its inhibition filled in; supply it. 5.82

Supply recorded inhibition for CC1=C(C(=O)N(C)C)C(c2ccccc2OC(F)F)NC(=O)N1 (configuration not stated) here. 3.23

Read off the recorded inhibition for CCCn1c(C(C)Nc2nc(-c3ccc(C)cc3)cs2)nc2cc(Cl)c(N3CCCCC3)cc21 (configuration not stated) 4.98

Please look at this compound and report its inhibition: O=C(CCCn1c(SCC(=O)c2ccccc2)nc2ccccc2c1=O)NCC1CCCO1 (configuration not stated) -3.16

For the compound Cc1cc(-c2csc(N)n2)c(C)n1Cc1ccccc1 , report inhibition. 11.3

Return the recorded inhibition value; entry: Cc1c(C(=O)NC2CCCCC2)oc2ccccc12 -0.72

Recall and state the measured inhibition for CCCn1c(C2CCCN2c2nc(-c3ccc(OC)cc3)cs2)nc2ccccc21 (configuration not stated) . 7.05

Return the recorded inhibition value; entry: O=C(N1CCCCC1)N1CCN(C(=O)N2CCCCC2)CC1 6.91

Please report the measured inhibition for CNc1nc(-c2ccccc2)cc(-c2ccccc2)n1 2.12

Answer with reported inhibition of Cc1nn(C(C)(C)C)c(OC(=O)CC(C)C)c1S(=O)(=O)c1ccccc1 2.54

Using the record for O=[N+]([O-])c1ccc(N2CCNCC2)cc1NCc1cccnc1 , state its measured inhibition. -23.7

Annotate the compound O=C(CNC(=O)Cc1ccccc1)N=Nc1c(O)[nH]c2ccc(Br)cc12 with its measured inhibition. 10.3

###

Molecular target: Bcl-2-like protein 1 (Homo sapiens) (UniProt Q07817)
Experiment: Bcl-xL/Bim BH3 interaction blockers – biochemical, fluorescence polarization, HTS, primary screen (AID 2129);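 note: 0% = DMSO wells and 100% = unlabeled Bim-BH3 peptide competitor; inhibitors lower millipolarization by displacing the labeled peptide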
Settings: GST-Bcl-xL / FITC-Bim BH3 peptide fluorescence polarization; at 10.9 µM
The whole screen tested about 320,000 compounds, of which about 2,200 (0.69%) were called active.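 Rule for the calls: active = inhibition above the mean of all tested compounds plus 3 SD, cutoff set per campaign (cut at about 30% in these data); inactive = the rest.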 The entries come from a sample that favours actives as a whole.
Log the outcome using a class from true = active, false = inactive

Per the assay record, what outcome was assigned to O=C(C[n+]1cc(Br)cc2ccccc21)c1ccc(F)cc1 ? true

I'd appreciate the recorded outcome for O=C(CNC(=O)c1ccccc1F)c1ccc(Br)cc1 from this test. false

What classification did O=C(Nn1c(SCc2ccc([N+](=O)[O-])cc2)nc2ccccc2c1=O)c1ccc(F)cc1 end up with in this test? false

Entry NC(=O)c1ccc(Nc2ccc3c(c2)CCC3)c([N+](=O)[O-])c1 : call = ? false

Per the records of this test, what outcome belongs to CN(C)NC(=O)C(NC(=O)c1ccc(N)cc1)C12CC3CC(CC(C3)C1)C2 (stereo not drawn) ? false

Test call, this molecule: Cc1ccc(O)c(-c2cc(C(=O)Nc3c(C)n(C)n(-c4ccccc4)c3=O)[nH]n2)c1 false

// outcome(item) with item = COc1ccc2c(c1)CCc1cn3ncc(C#N)c3nc1-2 false

Please let me know the test result on file for COc1cc(C(=O)NCc2cc3cc(Cl)ccc3n2C)cc(OC)c1OC . false

What call does the record list for COc1ccc(CNc2nc3c(c(=O)[nH]c(=O)n3C)n2Cc2ccccc2)cc1 ? false

What was the test verdict on CCc1c(C)nc2c(OC)cccc2c1Cl ? false

What did the test return for O=C1N[C@@H](Cc2ccccc2)C(=O)N2[C@H]1C[C@]1(Br)c3ccccc3N(S(=O)(=O)c3ccccc3)[C@H]21 ? false

Test call for this molecule, please: O=[N+]([O-])c1ccc(F)cc1Oc1nc(-c2cccnc2)nc2ccccc12 false

Dear colleague, could you share the recorded outcome for Cc1ccc(NC(=O)CSCC(=O)N2CCOCC2)cc1 when you have a moment? false

Which outcome did this test record for the molecule CCOC(=O)N1CCN(Cc2nnc(-c3ccccc3Cl)o2)CC1 ? false

Could you kindly confirm the outcome this assay logged for Cc1ccc(C2Nc3cccc4cccc(c34)N2)cc1 ? true

Test call for this molecule, please: Cc1ccc2nc(SCC(=O)N3CC(C)OC(C)C3)nc(=O)n2c1 (stereo not drawn) false

Identify the outcome logged in this assay for the molecule shown: O=C1CCC(=O)N1CCOP1(=O)COc2ccccc2OC1 false

Returns: the outcome recorded for COc1ccc2nc(N3CCCC(O)C3)c(C#N)cc2c1 (stereo not drawn) in this assay. true

Hi, do you know how O=C(Cn1cc(C(F)(F)F)ccc1=O)N/N=C/c1ccc(Cl)cc1Cl came out in this test? false

Answer briefly: the call reported for O=C(CSc1nnc(SCc2ccc(Cl)cc2)s1)N/N=C/c1ccccc1Cl in this assay. false

Per the records of this test, what outcome belongs to Cc1cc2ccccc2n1CCC(=O)O ? true

I'd appreciate the recorded outcome for Cc1c(NC(=S)NC(=O)CCc2ccccc2)c(=O)n(-c2ccccc2)n1C from this test. false

State the result this test recorded for O=C1CCC(=O)N(O)CCCCCNC(=O)CCC(=O)N(O)CCCCCNC(=O)CCC(=O)N(O)CCCCCN1 . false

Field: outcome | Entry: Cc1ccc2[nH]c(C(=O)O)c(NC(=O)c3ccccc3[N+](=O)[O-])c2c1 false

For O=C(O)CCn1c(Cc2ccccc2)nc2ccccc21 , which call appears in the assay record? false

What was the test verdict on Cc1ccc(NC(=O)CSc2nc(=O)n(CCN(C)C)c3c2CCCC3)c(C)c1 ? false

What did the test return for CCOC(=O)c1oc2c(CN3CCN(CCO)CC3)c(O)c(CC)cc2c(=O)c1-c1nc2ccccc2s1 ? false

Just curious, what result did CCCc1cc(=O)[nH]c(SCC(=O)c2c(N)n(CC(C)C)c(=O)n(C)c2=O)n1 get here? false

Recorded test outcome, item CC(C)(C)c1ccc(/C=C2\Oc3c(ccc(O)c3CN3CCN(CCO)CC3)C2=O)cc1 true

Recorded test outcome, item COc1ccc(Nc2nc(-c3cccnc3)nc3ccccc23)cn1 true

For COCCn1c(N)c(NCc2ccccc2)c(=O)[nH]c1=O , what call appears in the results of this test? true

What did this assay record as the result for Cc1ccc(C)c(N2CCN(C(=O)CCCn3c(=O)c4cccn4c4cccnc43)CC2)c1 ? false

Record lookup: outcome of this test for Cc1cc2ccccc2n1CCNC(=O)COc1ccc2ccccc2c1 ? false

Which outcome was assigned to CCOCCCNc1nc(-c2ccccc2)nc2ccccc12 in this test? false

What did this assay record as the result for COc1ccccc1N1CCN(c2nc(C)cc(=O)[nH]2)CC1 ? false

What was the test verdict on CCN(CC)S(=O)(=O)c1ccc(N2CCN(C)CC2)c(NC(=O)Nc2ccccc2F)c1 ? false

Hi, sorry to bother you, what did the test record for CCOc1ccc(N2C(=O)Nc3ccccc3C2(O)C(=O)NCc2ccco2)cc1 (stereo not drawn) ? false

Could you check what this test reported for Cc1ccc(NC(=O)CN(C)S(=O)(=O)c2cnc[nH]2)cc1C ? false

Taken from PubChem BioAssay AID2129.
